Listing of entries alongside the reported pIC50.
target: human PD-1 / PD-L1-Ig binding on Jurkat cell line over-expressing human PD-1 (Jurkat-PD-1) (Homo sapiens, UniProt Q15116); construct: expressed in transfected cells; host or cells: Jurkat; assay: Jurkat-PD-1 Cell Binding High-Content Screening Assay (CBA); assay type: cell-based; details: Jurkat-PD-1 cells, PE-labeled PD-L1-Ig 20 nM final; read-out: Jurkat HPD1_PDL1 IC50
Sequence (Q15116 25-288): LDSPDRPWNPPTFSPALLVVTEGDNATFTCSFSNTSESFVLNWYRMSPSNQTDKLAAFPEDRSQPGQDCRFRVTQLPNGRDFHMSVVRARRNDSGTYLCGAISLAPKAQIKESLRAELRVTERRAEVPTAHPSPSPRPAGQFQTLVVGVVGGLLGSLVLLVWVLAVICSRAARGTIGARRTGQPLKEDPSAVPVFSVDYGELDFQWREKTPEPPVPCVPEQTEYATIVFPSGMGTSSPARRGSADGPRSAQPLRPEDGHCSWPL
Note on units: pIC50 is unitless, being -log10 of a concentration expressed in mol/L.

smiles representation: CC[C@H](C)[C@@H]1NC(=O)[C@H](Cc2ccc(-c3ccccc3)cc2)NC(=O)[C@H](C(C)C)NC(=O)[C@H](Cc2c[nH]c3ccccc23)NC(=O)[C@H](CC(=O)O)NC(=O)[C@H](Cc2ccc(O)cc2)NC(=O)[C@H](Cc2ccc(OCC(=O)O)cc2)NC(=O)CSC[C@@H](C(=O)N[C@@H](C)C(N)=O)NC(=O)[C@H]([C@@H](C)O)NC(=O)[C@H](C(C)C)NC(=O)[C@H](CC2CCCCC2)NC(=O)[C@H](CCN)NC(=O)[C@@H](CC(C)C)NC(=O)[C@H](CCCN)NC1=O
pIC50: 7.77

# ---- query molecule ----
Input: Data request, read-out pIC50, for `CC[C@@H](C)[C@@H]1NC(=O)[C@H](Cc2ccc(-c3ccccc3)cc2)NC(=O)[C@H](C(C)C)NC(=O)[C@H](Cc2cccc(C)c2)NC(=O)[C@H](CC(=O)O)NC(=O)[C@H](Cc2ccc(C(=O)O)cc2)NC(=O)[C@H](Cc2ccncc2)NC(=O)CSC[C@@H](C(=O)N[C@@H](C)C(N)=O)NC(=O)[C@H]([C@@H](C)O)NC(=O)[C@H](C(C)C)NC(=O)[C@H](CC2CCCCC2)NC(=O)[C@H](CCN)NC(=O)[C@@H](CC(C)C)NC(=O)[C@H](CCCN)NC1=O`
Output: 8.30
